Herbicidal activity reference
Test system: Amaranthus retroflexus
Test Method Notes: greenhouse post-emergence herbicidal activity (use examples)
Format: in vivo
Assay Conditions: AMARE, 0.125 kg/ha, scale 0 to 100

CC(=O)N(C)c1c(Cl)ccc(C2=C(OC(=O)C(C)(C)C)c3ncc(F)cc3C(C)(C)S2(=O)=O)c1Cl; 90
CC(=O)N(C)c1c(Cl)ccc(C2=C(O)c3ncc(F)cc3C(C)(C)S2(=O)=O)c1Cl; 98
CC(=O)N(C)c1c(Cl)ccc(C2=C(OC(=O)C(C)(C)C)c3ncccc3C(C)(C)S2(=O)=O)c1Cl; 98

Let's switch to this molecule now.
IN: So what's the measured Herbicidal activity for this one? CC(=O)N(C)c1c(Cl)ccc(C2=C(O)c3ncccc3CS2(=O)=O)c1Cl
OUT: 98

Data origin: patent US10167297B2
